Entries and their one-nucleolus phenotype percent effect
Tested on: MCF10A
assay_details: one-nucleolus phenotype percent effect, hitpick validation (relative to siNT 0% and siNOL11 100%); higher = more cells with one nucleolus
protocol_conditions: 20 nM; 72 h

seq | unit_label | one-nucleolus phenotype percent effect
ACUGGGGAGCAGAAGGAGAACC [hsa-miR-4667-5p] | % | 107
GGCGACAAAACGAGACCCUGUC [hsa-miR-1273c] | % | 205
CACCAGGGCAGAGCAGGGCUGA [hsa-miR-6753-5p] | % | 141
UGAAGGUCUACUGUGUGCCAGG [hsa-miR-493-3p] | % | 126
CAAAGGUAUUUGUGGUUUUUG [hsa-miR-548m] | % | 130
